Source listed as ChEMBL document CHEMBL1142149.

Below is a list of entries, each paired with its recorded MIC50 value.
Test system: Prescottella equi
Experiment: Antimicrobial activity against Rhodococcus equi ATCC 6939
Assay type: functional
Conditions: Rhodococcus (subgen. Prescottella) equi, ATCC 6939
# output: bare number, implied unit µg/mL

Examples with answers:
C[C@@H](O)[C@H]1C(=O)N2C(C(=O)O)=C(SCCNC=N)C[C@H]12 [IMIPENEM ANHYDROUS] | 0.25
C[C@H]1c2cccc(O)c2C(=O)C2=C(O)[C@]3(O)C(=O)C(C(N)=O)=C(O)[C@@H](N(C)C)[C@@H]3[C@@H](O)[C@@H]21.O | 1
CC1(C)S[C@@H]2[C@H](NC(=O)[C@H](N)c3ccc(O)cc3)C(=O)N2[C@H]1C(=O)O | 1

Query string: So what does the record say about MIC50 for CN[C@H](CC(C)C)C(=O)N[C@H]1C(=O)N[C@@H](CC(N)=O)C(=O)N[C@H]2C(=O)N[C@H]3C(=O)N[C@H](C(=O)N[C@H](C(=O)O)c4cc(O)cc(O)c4-c4cc3ccc4O)[C@H](O)c3ccc(c(Cl)c3)Oc3cc2cc(c3O[C@@H]2O[C@H](CO)[C@@H](O)[C@H](O)[C@H]2O[C@H]2C[C@](C)(N)[C@H](O)[C@H](C)O2)Oc2ccc(cc2Cl)[C@H]1O ?
Result string: 0.5

Query string: Entry to check: CCCCCCCCCCCCCCCC(=O)N[C@@H](CCCCN)C(=O)N[C@@H](CCCCN)C(N)=O
Result string: 4

Query string: Please answer likewise for CCCCCCCCCCCCCCCC(=O)N[C@@H](CCCCN)C(=O)N[C@@H](CCCCN)C(=O)O
Result string: 2

Query string: // next record CC[C@H]1OC(=O)[C@H](C)[C@@H](O[C@H]2C[C@@](C)(OC)[C@@H](O)[C@H](C)O2)[C@H](C)[C@@H](O[C@@H]2O[C@H](C)C[C@H](N(C)C)[C@H]2O)[C@](C)(O)C[C@@H](C)C(=O)[C@H](C)[C@@H](O)[C@]1(C)O
Result string: 0.5

Query string: Next record, please: CC(=O)NC[C@H]1CN(c2ccc(N3CCOCC3)c(F)c2)C(=O)O1
Result string: 0.5
